// cross-study collection: Ki for D(2) dopamine receptor (Homo sapiens, UniProt P14416)
quantity name: Ki (µM)

[[record]]
compound = "O=C(CCCCCN1CCN(c2ccccc2-c2ccccc2)CC1)N1Cc2ccccc2C1"
unit_descriptor = "µM"
reported_result = 0.093

[[record]]
compound = "O=C1CCc2ccccc2N1CCCN1CCN(c2ccccc2[N+](=O)[O-])CC1"
unit_descriptor = "µM"
reported_result = 0.132

[[record]]
compound = "O=S(=O)(c1cncc2ccccc12)N1CCC(CCN2CCN(c3ccccc3)CC2)CC1"
unit_descriptor = "µM"
reported_result = 1.22

[[record]]
compound = "O=C1CC(c2c[nH]c3ccccc23)C(=O)N1CCCCN1CCC(c2c[nH]c3ccc(F)cc23)CC1 (racemic)"
unit_descriptor = "µM"
reported_result = 0.014

[[record]]
compound = "CC(C)(C)OC(=O)N[C@H]1CC[C@H](CN2CCc3ccccc3C2)CC1"
unit_descriptor = "µM"
reported_result = 0.355


[P] COc1ccccc1N1CCN(CCCCCCNC(=O)c2sc3nc(OC)c(Cl)c(C)c3c2N)CC1
[Q] COc1ccccc1N1CCN(CCCCNC(=O)/C=C/c2cccc(Cl)c2)CC1
[R] COc1ccccc1N1CCN(CCCCNC(=O)c2sc3ccccc3c2Cl)CC1
[S] CCC(C)(C)c1ccc(S(=O)(=O)Nc2ccc([C@]34CNC[C@H]3C4)cc2)cc1
In this exercise, place the 4 compounds in ascending sequence of their recorded Ki. // rank by listing labels in the order requested
P, Q, S, R
(P: 0.0006 µM, Q: 0.02 µM, S: 0.0501 µM, R: 0.0719 µM)

[P] COc1ccccc1N1CCN(CCCCCC(=O)NCc2ccc(C#N)cc2)CC1
[Q] CCOc1ccccc1N1CCN(CCCCc2cc(-c3cccc([N+](=O)[O-])c3)no2)CC1
[R] CN(C)CC1=Cc2cn(S(=O)(=O)c3ccccc3)c3cccc(c23)O1
[S] O=C(NC1CCc2ccc(CCN3CCN(c4nsc5ccccc45)CC3)cc21)c1cccnc1 (stereo unspecified)
Returns the items ordered by Ki, from maximum to minimum. // rank by listing labels in the order requested
R, P, Q, S

[1] CC(C)c1ccccc1OCCN1CCC(CNS(=O)(=O)c2cccc(Cl)c2)CC1
[2] COc1ccccc1N1CCN(CCCCCC(=O)N2CCc3ccccc3C2)CC1
[3] O=S(=O)(NCC1CCN(CCOc2cccc(F)c2)CC1)c1cccs1
[4] COc1ccc(N2CCN(CC[C@H]3CC[C@H](Nc4ncccn4)CC3)CC2)cc1
Returns the items ordered by Ki, from maximum to minimum. // rank by listing labels in the order requested
3, 4, 1, 2
(3: 1.06 µM, 4: 0.39 µM, 1: 0.066 µM, 2: 0.022 µM)

[a] COc1ccccc1N1CCN(CCCCNc2nccc3ccccc23)CC1
[b] COc1ccccc1N1CCN(CC(F)CCNC(=O)c2cc3ccccc3o2)CC1 (stereo unspecified)
[c] CNc1ccc(C(=O)NCCCCN2CCCN(c3ccccc3OC)CC2)cc1
Returns the items ordered by Ki, from maximum to minimum. // rank by listing labels in the order requested
b, c, a
